target: SARS-COV-2 Wuhan Reference RBD (SARS-CoV-2, UniProt P0DTC2 319-541); experiment: ELISA, RBD coated
pEC50: −log10 of the molar value.
measured metric: pEC50

>  <binder>
PP1147 MBP-5HVZ-PAPA-R5a-B7-H6 (VHH, Form: Dimer) VHH: QVQLVESGGGLVQPGGSLRLSCAASGAFFSYGAIHWFRQAPGKQREEVAAITSGGSTGYADSVKGRFTISRDNAKNTVYLQMNSLKPEDTAVYYCNAGVVWLPSNAAYNLWGQGTQVTVSS

>  <measured number>
9.44

$$$$
>  <binder>
PP913 MBP-5HVZ-S3a-C5-H6 (VHH, Form: Dimer) VHH: QVQLVESGGGLVQPGGSLRLSCAASGSIKNTNAMHWFRQAPGKDREWVAGITSGGNSNYGDSVKGRFTISRDNAKNTVYLQMNSLKPEDTAVYYCAAFGYRYDQDYTYDYWGQGTQVTVSS

>  <measured number>
8.82

$$$$
>  <binder>
PP1109 MBP-5HVZ-PAPA-RN-25-H6 (VHH, Form: Dimer) VHH: QVQLVESGGGLVQPGGSLRLSCAASGEDYSYNAAHWFRQAPGKEREWVAAINSGGGTYYADSVKGRFTISRDNAKNTVYLQMNSLKPEDTAVYYCAYLGALDRDGYDAWGQGTQVTVSS

>  <measured number>
8.97

$$$$
>  <binder>
PP1148 MBP-5HVZ-PAPA-R5a-C5-H6 (VHH, Form: Dimer) VHH: QVQLVESGGGLVQPGGSLRLSCAASGDIFSINALHWFRQAPGKQREEVAAITSGGSTGYADSVKGRFTISRDNAKNTVYLQMNSLKPEDTAVYYCAAQQARGGLDSDYWGQGTQVTVSS

>  <measured number>
9.52

$$$$

These measurements were taken from patent US20240150440A1.
